- Test system: Nakaseomyces glabratus
- assay.text: Antifungal activity against Candida glabrata ATCC 90030 after 24 to 72 hrs by microdilution method
- Assay type: functional
Task for the reader: assign each of the following compounds its reported MIC.

// field: MIC; key: O=C1c2ccccc2O[C@@H](c2ccccc2Cl)[C@@H]1n1cncn1.O=[N+]([O-])O (relative stereo) ; value = > 62.5 µg/mL

// field: MIC; key: O/N=C1\c2ccccc2O[C@@H](c2ccccc2)[C@@H]1n1cncn1 (relative stereo) ; value = > 62.5 µg/mL

// field: MIC; key: O/N=C1\c2ccccc2O[C@@H](c2ccc(Cl)cc2Cl)[C@@H]1n1cncn1 (relative stereo) ; value = > 62.5 µg/mL

// field: MIC; key: O=C1c2ccccc2O[C@@H](c2cccc(Cl)c2)[C@@H]1n1cncn1 (relative stereo) ; value = 62.5 µg/mL

// field: MIC; key: COc1ccccc1[C@@H]1Oc2ccccc2C(=O)[C@H]1n1cncn1.O=[N+]([O-])O (relative stereo) ; value = > 62.5 µg/mL

// field: MIC; key: O=C1c2ccccc2O[C@@H](c2ccc(F)cc2)[C@@H]1n1cncn1 (relative stereo) ; value = 31.3 µg/mL

// field: MIC; key: O=C1c2ccccc2O[C@@H](c2ccc(Cl)cc2)[C@@H]1n1cncn1 (relative stereo) ; value = > 62.5 µg/mL

// field: MIC; key: COc1ccc([C@@H]2Oc3ccccc3C(=O)[C@H]2n2cncn2)cc1 (relative stereo) ; value = > 62.5 µg/mL

// field: MIC; key: O=C1c2ccccc2O[C@@H](c2cccc(F)c2)[C@@H]1n1cncn1 (relative stereo) ; value = > 62.5 µg/mL

// field: MIC; key: O=C1c2ccccc2O[C@@H](c2ccccc2)[C@@H]1n1cncn1 (relative stereo) ; value = > 62.5 µg/mL

// field: MIC; key: COc1cccc([C@@H]2Oc3ccccc3C(=O)[C@H]2n2cncn2)c1 (relative stereo) ; value = > 62.5 µg/mL

// field: MIC; key: O=C1c2ccccc2O[C@@H](c2ccc(Cl)cc2Cl)[C@@H]1n1cncn1 (relative stereo) ; value = > 62.5 µg/mL

// field: MIC; key: OC(Cn1cncn1)(Cn1cncn1)c1ccc(F)cc1F ; value = 31.3 µg/mL

// field: MIC; key: Cc1ccc([C@@H]2Oc3ccccc3C(=O)[C@H]2n2cncn2)cc1 (relative stereo) ; value = > 62.5 µg/mL
